Reference source: the Immune Epitope Database (IEDB)

Subject of test: HLA-B*08:02
Experimental protocol: IEDB peptide-MHC binding, purified MHC/direct/fluorescence; filed as Kd, often an IC50 or EC50 that approximates it; bounds were set here for any values at or beyond the usual limits of such assays
Study conditions: source organism: Cryptosporidium parvum Iowa II
pKd: −log10 of the molar value.
Endpoint name: pKd

QUERY: With HLA-B*08:02 as the test system, provide measured pKd for this sequence: `RKWGLDFCY`
RESULT: ≤ 4.70

---

Subject of test: HLA-B*83:01
Experimental protocol: IEDB peptide-MHC binding, purified MHC/competitive/fluorescence; filed as Kd, often an IC50 or EC50 that approximates it; bounds were set here for any values at or beyond the usual limits of such assays
Study conditions: source organism: Cryptosporidium parvum Iowa II
Endpoint name: Kd

QUERY: Please report the measured Kd for `RIYKRSLKL`
RESULT: ≥ 5 µM

---

Subject of test: HLA-A*11:01
Experimental protocol: IEDB peptide-MHC binding, purified MHC/competitive/radioactivity; filed as Kd, often an IC50 or EC50 that approximates it; bounds were set here for any values at or beyond the usual limits of such assays
Study conditions: source organism: Mammarenavirus guanaritoense
Endpoint name: pKd
One number for each entry, as −log10 of the molar value.

QUERY: Please report the measured pKd for `TRFWYINHTK`
RESULT: 5.85

---
QUERY: Please report the measured pKd for `ACNKIKGKK`
RESULT: 4.72

---

Subject of test: HLA-B*27:03
Experimental protocol: IEDB peptide-MHC binding, purified MHC/competitive/fluorescence; filed as Kd, often an IC50 or EC50 that approximates it; bounds were set here for any values at or beyond the usual limits of such assays
Study conditions: source organism: Reston ebolavirus
Endpoint name: Kd

QUERY: With HLA-B*27:03 as the test system, provide measured Kd for this sequence: `TTDDSTSYY`
RESULT: ≥ 20 µM

---

Subject of test: HLA-B*40:01
Experimental protocol: IEDB peptide-MHC binding, purified MHC/direct/fluorescence; filed as Kd, often an IC50 or EC50 that approximates it; bounds were set here for any values at or beyond the usual limits of such assays
Study conditions: source organism: Pasteurella multocida
pKd: −log10 of the molar value.
Endpoint name: pKd

QUERY: Please report the measured pKd for `LMAEDLANV`
RESULT: ≤ 4.70

---

Subject of test: HLA-C*15:02
Experimental protocol: IEDB peptide-MHC binding, purified MHC/direct/fluorescence; filed as Kd, often an IC50 or EC50 that approximates it; bounds were set here for any values at or beyond the usual limits of such assays
Study conditions: source organism: Listeria monocytogenes serotype 1/2a str. F6854
Endpoint name: pKd
Answers are plain numbers, as −log10 of the molar value.

QUERY: Please report the measured pKd for `KMIGNLLSF`
RESULT: 5.59

---

Subject of test: HLA-A*11:01
Experimental protocol: IEDB peptide-MHC binding, purified MHC/competitive/radioactivity; filed as Kd, often an IC50 or EC50 that approximates it; bounds were set here for any values at or beyond the usual limits of such assays
Study conditions: source organism: Lymphocytic choriomeningitis virus (strain Armstrong)
Record form. Attribute: Kd. Fill in for each entry.

Example results:
QUERY: Please report the measured Kd for `TLYICDKQSH`
RESULT: ≥ 47.8 µM

QUERY: Please report the measured Kd for `TLGNFSWFPH`
RESULT: 1.38 µM

---
QUERY: Please report the measured Kd for `QFKQDSKYSH`
RESULT: ≥ 69.7 µM

---

Subject of test: HLA-A*30:01
Experimental protocol: IEDB peptide-MHC binding, purified MHC/competitive/fluorescence; filed as Kd, often an IC50 or EC50 that approximates it; bounds were set here for any values at or beyond the usual limits of such assays
Study conditions: source organism: Human immunodeficiency virus 1
pKd: −log10 of the molar value.
Endpoint name: pKd

QUERY: Please report the measured pKd for `IATLYCVHQK`
RESULT: ≤ 5.30

---
QUERY: Please report the measured pKd for `RSLYNTIATLY`
RESULT: ≤ 4.70

---

Subject of test: HLA-B*27:03
Experimental protocol: IEDB peptide-MHC binding, purified MHC/competitive/fluorescence; filed as Kd, often an IC50 or EC50 that approximates it; bounds were set here for any values at or beyond the usual limits of such assays
Study conditions: source organism: Lechiguanas virus
pKd: −log10 of the molar value.
Record form. Attribute: pKd. Fill in for each entry.

QUERY: Please report the measured pKd for `SCINGQCPY`
RESULT: ≤ 4.70

// moving on: another record for pKd
QUERY: Please report the measured pKd for `KLKSVGKAY`
RESULT: ≤ 4.70

---

Subject of test: HLA-B*51:01
Experimental protocol: IEDB peptide-MHC binding, purified MHC/competitive/fluorescence; filed as Kd, often an IC50 or EC50 that approximates it; bounds were set here for any values at or beyond the usual limits of such assays
Study conditions: source organism: Giardia lamblia ATCC 50803
pKd: −log10 of the molar value.
Endpoint name: pKd

QUERY: Please report the measured pKd for `IANTTDHFF`
RESULT: ≤ 4.70

QUERY: Please report the measured pKd for `AILAGEHKC`
RESULT: ≤ 4.70

---
QUERY: Please report the measured pKd for `ISKANWMTY`
RESULT: ≤ 4.70

---

Subject of test: HLA-A*23:01
Experimental protocol: IEDB peptide-MHC binding, purified MHC/direct/fluorescence; filed as Kd, often an IC50 or EC50 that approximates it; bounds were set here for any values at or beyond the usual limits of such assays
Study conditions: source organism: Vibrio parahaemolyticus RIMD 2210633
Endpoint name: Kd

QUERY: Please report the measured Kd for `SMNYPNSYK`
RESULT: ≥ 20 µM

---

Subject of test: HLA-A*26:01
Experimental protocol: IEDB peptide-MHC binding, purified MHC/direct/fluorescence; filed as Kd, often an IC50 or EC50 that approximates it; bounds were set here for any values at or beyond the usual limits of such assays
Study conditions: source organism: Vibrio cholerae V52
Endpoint name: Kd

QUERY: With HLA-A*26:01 as the test system, provide measured Kd for this sequence: `IVKQGRDAL`
RESULT: ≥ 20 µM

---
QUERY: With HLA-A*26:01 as the test system, provide measured Kd for this sequence: `MGMEQTMSV`
RESULT: ≥ 20 µM

---

Record form. Attribute: Kd. Fill in for each entry.
Subject of test: HLA-B*35:01
Experimental protocol: IEDB peptide-MHC binding, purified MHC/competitive/radioactivity; filed as Kd, often an IC50 or EC50 that approximates it; bounds were set here for any values at or beyond the usual limits of such assays
Study conditions: source organism: Dengue virus 2 Jamaica/1409/1983
Answers are plain numbers, in nM.

QUERY: Please report the measured Kd for `WALCEALTL`
RESULT: 641

QUERY: Please report the measured Kd for `LPAIVREAIK`
RESULT: 5500

---
QUERY: Please report the measured Kd for `TPPGSRDPF`
RESULT: 160

---

Subject of test: HLA-A*03:01
Experimental protocol: IEDB peptide-MHC binding, purified MHC/competitive/radioactivity; filed as Kd, often an IC50 or EC50 that approximates it; bounds were set here for any values at or beyond the usual limits of such assays
Study conditions: source organism: Vaccinia virus WR
Endpoint name: pKd
Answers are plain numbers, as −log10 of the molar value.

Example results:
QUERY: Please report the measured pKd for `NSVANRSKQK`
RESULT: 6.49

QUERY: Please report the measured pKd for `LLMHLVSLYK`
RESULT: 8.91

QUERY: Please report the measured pKd for `GLKIEEIEK`
RESULT: 5.25

QUERY: Please report the measured pKd for `ESLLKETIQK`
RESULT: 7.57

QUERY: Please report the measured pKd for `RLVEEFFNR`
RESULT: 7.67

Quick batch: pKd for everything below.
1. IMFEQYFIY
2. LLPSTDVNK

RESULT:
[8.44, 5.30]

---

Subject of test: HLA-A*01:01
Experimental protocol: IEDB peptide-MHC binding, purified MHC/direct/fluorescence; filed as Kd, often an IC50 or EC50 that approximates it; bounds were set here for any values at or beyond the usual limits of such assays
Study conditions: source organism: Camelpox virus CMS
pKd: −log10 of the molar value.
Endpoint name: pKd

QUERY: Please report the measured pKd for `ITDFNIDTY`
RESULT: ≥ 9.00

---

Subject of test: HLA-A*31:01
Experimental protocol: IEDB peptide-MHC binding, purified MHC/competitive/fluorescence; filed as Kd, often an IC50 or EC50 that approximates it; bounds were set here for any values at or beyond the usual limits of such assays
Study conditions: source organism: Orthohantavirus sinnombreense
Endpoint name: pKd
Give bare numbers, as −log10 of the molar value.

QUERY: Please report the measured pKd for `RTLGVFRYK`
RESULT: 8.21

---

Subject of test: HLA-A*03:01
Experimental protocol: IEDB peptide-MHC binding, purified MHC/direct/fluorescence; filed as Kd, often an IC50 or EC50 that approximates it; bounds were set here for any values at or beyond the usual limits of such assays
Study conditions: source organism: H9N2 subtype Influenza A virus (A/swine/Korea/S81/2004(H9N2))
Endpoint name: Kd

QUERY: Please report the measured Kd for `KAVRGDLNF`
RESULT: ≥ 20 µM
